# cytotoxicity at 70.5 h per entry
EXPERIMENTAL_PROTOCOL: Human HepG2 cell viability assay in 384 well format
Format: toxicity, cell-based
Parameters: dose 125 nL, time 70.5 hour; concentration not given beside the values
PARTICULARS: HepG2 cells, read-out: Inhibition
PROPERTY_NAME: cytotoxicity at 70.5 h (%)

>>> reported("O=C(Cc1ccccn1)N1CCC2(CC1)CN(c1ncccn1)CCO2")
-10.3
>>> reported("CN1CCCCC1(C)C(=O)N1CCC(c2ccccn2)CC1 (stereo unspecified)")
14.5
>>> reported("CCc1nc(CN2CCCN(C(=O)c3c(C)noc3C)CC2)cs1")
-12.9
>>> reported("CC[C@H]1CN(C(=O)c2ccc(-n3cnnc3)nc2)CC[C@@]1(C)O")
36
>>> reported("CS(=O)(=O)CC1CCCN(C(=O)Cn2cccc(C(F)(F)F)c2=O)C1 (stereo unspecified)")
6.87
>>> reported("Cc1nc(C)c(CC(=O)N2CCCN(CC3CC3)C(C(C)C)C2)c(=O)[nH]1 (stereo unspecified)")
0.531
>>> reported("c1csc(-c2nc(CN3CCCCC3Cn3cncn3)cs2)c1 (stereo unspecified)")
-14.9
>>> reported("Cc1cc(C[C@@H]2CCC[C@H]2NCc2ccccc2C)on1")
-1.32
>>> reported("COc1cc2cc(C)c(SCCN3CCCC3)nc2cc1OC")
-6.08
>>> reported("CCN1CCOCC2(CCCN(C(=O)c3cnccn3)C2)C1 (stereo unspecified)")
-14.9
>>> reported("CCCc1cc(NCCn2cccn2)n2ncnc2n1")
-6.07

====

EXPERIMENTAL_PROTOCOL: Human HepG2 cell viability assay in 384 well format
Format: toxicity, cell-based
Parameters: dose 125 nL, time 70.5 hour; concentration not given beside the values
PARTICULARS: HepG2 cells, read-out: Inhibition
# cytotoxicity at 70.5 h per entry
PROPERTY_NAME: cytotoxicity at 70.5 h (%)

>>> reported("O=C(c1cccnc1O)N(CCO)Cc1cc(Br)ccc1F")
-9.73
>>> reported("COCCn1cnc2ccc(NC(=O)C3CC3)cc2c1=O")
-8.53
>>> reported("O=c1ccc2c(n1CCN1CCCC1)CCN(c1ncccn1)CC2")
-4.06
>>> reported("CC(C)N(C)CCC(=O)N1CCCC(c2ccc(C(=O)O)cc2)C1 (stereo not drawn)")
-7.94
>>> reported("Cc1ccc(C(=O)N2CCCn3nc(CCC(=O)O)cc3C2)cc1Cl")
-2.03
>>> reported("COCC1(CNC(=O)[C@@]23CNC[C@@H]2CN(C2CCCC2)C3)CC1")
-3.2
>>> reported("COc1ccc(CN2CCCCC2CNC(=O)OC(C)(C)C)cc1F (stereo not drawn)")
-7.89
>>> reported("CN(C)CCn1ccnc1C1CCCN(C(=O)CCc2cccnc2)C1 (stereo not drawn)")
-4.26
>>> reported("c1csc(CN2CCOCC3(CCN(C4CCOCC4)C3)C2)c1 (stereo not drawn)")
-16.8
>>> reported("CCCOc1cccc(OCc2ccon2)c1")
-7.15
>>> reported("Cc1ccc(C(=O)NCCCN(C)S(C)(=O)=O)cc1-n1cccc1")
-8.22
>>> reported("O=C(Nc1ccc2c(c1)C(=O)NC2=O)c1ccc(Cl)s1")
-10.9
>>> reported("c1ccc(Cn2cc(CNCC3CNc4ccnn4C3)cn2)cc1 (stereo not drawn)")
32.4
>>> reported("c1coc(CN2CCC3(CC2)COC(COCC2CCOCC2)C3)c1 (stereo not drawn)")
-12.1
>>> reported("CN(Cc1cc(C(C)(C)C)n[nH]1)C(=O)CCC(=O)NC1CCCC1")
-9.2
>>> reported("Cc1nc(C2CCCN(C(=O)c3scnc3C)C2)no1 (stereo not drawn)")
-7.6
>>> reported("CCn1ccnc1CNCC1CCCN1c1cc(NC)ncn1 (stereo not drawn)")
-4.32
>>> reported("CCN(CC)Cc1nc2c(o1)CN(C(=O)c1ccc3[nH]ccc3c1)C2")
-17
>>> reported("O=C(Nc1cnc2n1CCCC2)C1CCCN1C1CCNCC1 (stereo not drawn)")
-15
>>> reported("CN(C)CCN1C(=O)CCC12CCCN(C(=O)N(C)C)CC2 (stereo not drawn)")
0.00398
>>> reported("Cn1cc(C(=O)NCC2CCN(C(=O)NCC(F)(F)F)CC2)cn1")
2.26
>>> reported("CCOC(=O)N1CCN(c2nc(CCN)nc3sc(C)c(C)c23)CC1")
1.12
>>> reported("Oc1ccc(Cl)cc1CNCc1cccc(C(F)(F)F)c1")
-12.9
>>> reported("Cc1nc(NC(=O)c2cccnc2N2CCOCC2)sc1C")
-13.9
>>> reported("O=C(c1ccoc1)N1CCc2ncnc(NCc3ccccn3)c2CC1")
25.5
>>> reported("Clc1ccc(-c2nnc([C@H]3CCN(C4CCCCC4)C3)o2)cc1")
-3.54
>>> reported("CS(=O)(=O)N1CCN(C(=O)c2ccco2)[C@H]2CS(=O)(=O)C[C@H]21")
15.1
>>> reported("CC(C)NC(=O)N1CCCC2(CCCCN2)C1 (stereo not drawn)")
-7.7
>>> reported("CN(C)CCn1c2c(ccc1=O)CC(NCc1cccnc1)CC2 (stereo not drawn)")
-0.247
>>> reported("CN(C)CCC1CCN(Cc2ccn(C)c(=O)c2)CC1")
-4.16
>>> reported("CN(Cc1cccc(F)c1)C(=O)CN1CCOC(Cn2cccn2)C1 (stereo not drawn)")
-2.5
>>> reported("CC(O)CN1CCN(C(=O)Cc2ccccc2Cl)CC1 (stereo not drawn)")
-5.1
>>> reported("Cc1cc(C(O)CCNC(=O)c2ccc(Cl)s2)c(C)o1 (stereo not drawn)")
-8.23
>>> reported("CCc1nc(CN(C(C)=O)C2CCN(CCc3cnn(C)c3)C2)no1 (stereo not drawn)")
21.3
>>> reported("CCN(CC)c1nc2sc(C(=O)N3CCNC(=O)C3)cc2s1")
-8.64
>>> reported("Cn1c(SCc2noc(-c3ccsc3)n2)nnc1C1CCS(=O)(=O)C1 (stereo not drawn)")
-4.08
>>> reported("Cn1cccc1C(O)CNS(=O)(=O)c1ccccc1F (stereo not drawn)")
3.03
>>> reported("Cc1ccc(CN(CC(=O)NCC2CCOC2)c2ccc(F)cc2)o1 (stereo not drawn)")
-3.8
>>> reported("O=C(NC1CCC1)[C@H]1C[C@@H]2[C@@H](C1)OCCN2CC1CC1")
0.808
>>> reported("Cc1nc(CCNC(=O)C2CC(=O)N(C(C)(C)C)C2)sc1C (stereo not drawn)")
-8.11
>>> reported("Cc1cc(NC(=O)NCCO)nn1-c1ccc(Cl)cc1Cl")
0.498
>>> reported("CC(=O)N1CCCC1c1nc(C)cc(-c2ccc(F)cc2)n1 (stereo not drawn)")
-1.51
>>> reported("CS(=O)(=O)N1CCOCC2(CCN(Cc3ccoc3)CC2)C1")
-3.92
>>> reported("Cc1noc(CN2CCN(C(=O)N(C)C)CC2)n1")
-11
>>> reported("Cc1ccccc1CN(C)C(=O)CCc1nc(-c2nnc[nH]2)no1")
8.55
>>> reported("Cc1ccc(-n2nnc(CC(=O)N3CCSCC3)c2C)cc1")
-12.8
>>> reported("NC(=O)C1Cn2ccnc2C2(CCN(C(=O)NC3CCCC3)CC2)O1 (stereo not drawn)")
-8.91
>>> reported("CN(C)C(=O)c1ccc(CNc2c(Cl)cccc2C#N)cc1")
3.41

====

# cytotoxicity at 70.5 h per entry
EXPERIMENTAL_PROTOCOL: Human HepG2 cell viability assay in 384 well format
Assay type: toxicity, cell-based
Parameters: dose 125 nL, time 70.5 hour; concentration not given beside the values
PARTICULARS: HepG2 cells, read-out: Inhibition
PROPERTY_NAME: cytotoxicity at 70.5 h (%)

>>> reported("Cc1noc(-c2ccc(N3CCN(Cc4nccn4C)CC3)nc2)n1")
-15.7
>>> reported("Cc1ccc(O)c(CNC2CCCN(Cc3noc(C4CC4)n3)C2)n1 (configuration not stated)")
-4.57
>>> reported("CC(CCc1cccc(F)c1)NC(=O)NCc1ncnn1C (configuration not stated)")
-5.76
>>> reported("CN(Cc1ccsc1)C(=O)c1cc(S(=O)(=O)N(C)C)ccc1Cl")
-7.18
>>> reported("CC(=O)N1CCN(c2cc(N(C)C)cnn2)CC1")
-3.71
>>> reported("CNC(=O)[C@@H]1COC[C@H]2CN(C(=O)COc3ccccc3)C[C@H]21")
-1.14
>>> reported("CC(C)(CNc1ccc2ccc(F)cc2n1)NS(C)(=O)=O")
-7.19
>>> reported("CN(C)C1Cc2ccccc2N(S(=O)(=O)c2ccccc2C#N)C1 (configuration not stated)")
34.1
>>> reported("O=S(=O)(c1ccc(-c2cnco2)cc1)N1CCC2(CCCNC2)C1 (configuration not stated)")
-1.83
>>> reported("Cc1ccc(NC2CCN(C(=O)c3ccoc3C)CC2)nn1")
-0.801
>>> reported("CN(Cc1ccccc1F)C(=O)Cn1cc(NC(=O)C(C)(C)C)cn1")
10.7
>>> reported("O=C(COc1ccccc1)N1CCCC1c1ccc[nH]1 (configuration not stated)")
-17.9
